test system: EKVX NSCLC; experiment: NCI-60 one-dose screen, 48 h; conditions: 10 µM unless noted
About 83,000 compounds went through this panel and 20% of them were active in at least one assay; those are over-represented in the sample as a whole. Active and inactive are the calls of the source. Rule for the calls: active = growth percent below 10; inactive = the rest.
Outcome codes: active, inactive

Molecule: CC(O)c1cnc(/C=C2\SC(=S)N(Cc3ccccc3)C2=O)s1 (centres undefined)
Qualitative label: inactive
--
Molecule: CN(Cc1ccc(C(F)(F)F)cc1)CC(O)C(=O)Nc1ccc(Cl)cc1 (centres undefined)
Qualitative label: inactive
--
Molecule: CC(C)OC(=O)c1ccc2[nH]c(O)c(C(=Nc3ccc(N(C)C(=O)CN4CCN(C)CC4)cc3)c3ccccc3)c2c1
Qualitative label: active
--
Molecule: CCOC(=O)c1c2c(n3ccc(C)cc13)C(=O)c1ccccc1C2=O
Qualitative label: inactive
--
Molecule: CC/C(=C(/c1ccc(Cl)cc1)c1ccc(OCCN2CCCC2)cc1)c1ccc(OC)cc1
Qualitative label: inactive
--
Molecule: Oc1c(Cl)cc(Cl)c2ccc(Cn3cc(-c4cc(C(F)(F)F)cc(C(F)(F)F)c4)nn3)nc12
Qualitative label: inactive
--
Molecule: O=C(NCc1ccccc1)Nc1ccccc1CNc1nc(Nc2ccc(OCCN3CCCC3)cc2)ncc1Cl
Qualitative label: inactive
--
Molecule: O=C(Nc1nn(-c2ccc(Cl)cc2Cl)nc1-c1ccccc1)c1ccccc1
Qualitative label: inactive
--
Molecule: Nc1nc(=S)c2ncn(C3OC(COP(=O)(O)O)C(O)C3O)c2[nH]1 (centres undefined)
Qualitative label: inactive
